Measured %Inh accompanies every entry in the list below.
# System: DAPK1;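 also: KINOMEscan kinase panel screen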
# condition.parameters: concentration: 1 μM, replicates: in singlicate; n = 1
readout.name: %Inh

> print(dat)
                                   compound  result
1  Cc1nnc(-c2ccc(C)c(-c3ccc(C(=O)Nc4ccc(NS(C)(=O)=O)cc4)cc3)c2)o1 [GW702865]      8%
2  COc1ccc(Nc2ncc(C#N)c(Nc3ccccc3C(N)=O)n2)cc1N1CCN(C)CC1.Cl [GSK1558669]   97.8%
3  COc1cc2ncn(-c3cc(OCc4sccc4Cl)c(C(N)=O)s3)c2cc1OC [GSK448459]     12%
4  COc1ccc(CNC(=O)NC2CCN(c3ccnc(Nc4ccc(OC)cc4)n3)C2)cc1 (stereo not shown) [GSK1379727]      0%

Source listed as paper PMC5540273.
